Target System: UniProtKB P13945
Protocol Notes: cAMP accumulation in CHO-K1 cells expressing human β3-AR
Test Parameters: TF 0.025 μg/well, 116 fmol/mg
Endpoint: log10(Iso50) (log10 of the value in nM)

Compound | Target System | Endpoint | Observed Value
Nc1nc(CC(=O)Nc2ccc(CCNC[C@H](O)c3ccccc3)cc2)cs1 | UniProtKB P13945 | log10(Iso50) | 1.43
O=C(Nc1ccc(C[C@@H]2CC[C@H]([C@H](O)c3ccccc3)N2)cc1)[C@@H]1CCc2nccc(=O)n21 | UniProtKB P13945 | log10(Iso50) | 1.35
CC(C)NC[C@H](O)c1ccc(O)c(O)c1 [Isoproterenol, (–)-isoprenaline (+)-bitartrate] | UniProtKB P13945 | log10(Iso50) | 1.89
Cc1cc(OCC(=O)O)c(C)cc1CCN[C@@H](C)[C@H](O)c1ccc(O)cc1 | UniProtKB P13945 | log10(Iso50) | 2.97
O=C(O)c1cccc(-c2cccc(NCCNC[C@H](O)c3cccc(Cl)c3)c2)c1 | UniProtKB P13945 | log10(Iso50) | 2.40

---

Target System: human β3-AR (Homo sapiens, UniProt P13945)
Sequence (P13945 whole entry): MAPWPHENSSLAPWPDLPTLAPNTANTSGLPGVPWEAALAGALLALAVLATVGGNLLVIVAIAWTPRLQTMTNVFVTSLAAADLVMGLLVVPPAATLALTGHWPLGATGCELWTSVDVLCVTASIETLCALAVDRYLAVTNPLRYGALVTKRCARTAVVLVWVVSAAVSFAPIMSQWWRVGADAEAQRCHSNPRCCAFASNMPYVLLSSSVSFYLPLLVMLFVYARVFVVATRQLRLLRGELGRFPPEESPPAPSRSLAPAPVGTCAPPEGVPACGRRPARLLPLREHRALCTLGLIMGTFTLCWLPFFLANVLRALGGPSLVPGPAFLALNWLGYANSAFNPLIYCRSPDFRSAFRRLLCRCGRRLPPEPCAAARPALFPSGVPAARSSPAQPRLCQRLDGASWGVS
Protocol Notes: cAMP accumulation in CHO-K1 cells expressing human β3-AR;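 note: CHO-K1 cells transiently transfected with a β-AR expression plasmid, cAMP assayed roughly 24 h post-transfection, values derived from agonist concentration–response curves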
Test Parameters: EC50 β3-AR, TF 0.05 μg/well

Smiles Str | EC50 (nM)
O=C(Nc1ccc(C[C@@H]2CC[C@H]([C@H](O)c3ccccc3)N2)cc1)[C@@H]1CCc2nccc(=O)n21 | 3.83
Cc1cc(OCC(=O)O)c(C)cc1CCN[C@@H](C)[C@H](O)c1ccc(O)cc1 | 398
O=C(O)c1cccc(-c2cccc(NCCNC[C@H](O)c3cccc(Cl)c3)c2)c1 | 85.1
Nc1nc(CC(=O)Nc2ccc(CCNC[C@H](O)c3ccccc3)cc2)cs1 | 2.81
